Target: ALK (Homo sapiens (Human), UniProt Q9UM73)
Sequence (Q9UM73 19-1620, species assumed): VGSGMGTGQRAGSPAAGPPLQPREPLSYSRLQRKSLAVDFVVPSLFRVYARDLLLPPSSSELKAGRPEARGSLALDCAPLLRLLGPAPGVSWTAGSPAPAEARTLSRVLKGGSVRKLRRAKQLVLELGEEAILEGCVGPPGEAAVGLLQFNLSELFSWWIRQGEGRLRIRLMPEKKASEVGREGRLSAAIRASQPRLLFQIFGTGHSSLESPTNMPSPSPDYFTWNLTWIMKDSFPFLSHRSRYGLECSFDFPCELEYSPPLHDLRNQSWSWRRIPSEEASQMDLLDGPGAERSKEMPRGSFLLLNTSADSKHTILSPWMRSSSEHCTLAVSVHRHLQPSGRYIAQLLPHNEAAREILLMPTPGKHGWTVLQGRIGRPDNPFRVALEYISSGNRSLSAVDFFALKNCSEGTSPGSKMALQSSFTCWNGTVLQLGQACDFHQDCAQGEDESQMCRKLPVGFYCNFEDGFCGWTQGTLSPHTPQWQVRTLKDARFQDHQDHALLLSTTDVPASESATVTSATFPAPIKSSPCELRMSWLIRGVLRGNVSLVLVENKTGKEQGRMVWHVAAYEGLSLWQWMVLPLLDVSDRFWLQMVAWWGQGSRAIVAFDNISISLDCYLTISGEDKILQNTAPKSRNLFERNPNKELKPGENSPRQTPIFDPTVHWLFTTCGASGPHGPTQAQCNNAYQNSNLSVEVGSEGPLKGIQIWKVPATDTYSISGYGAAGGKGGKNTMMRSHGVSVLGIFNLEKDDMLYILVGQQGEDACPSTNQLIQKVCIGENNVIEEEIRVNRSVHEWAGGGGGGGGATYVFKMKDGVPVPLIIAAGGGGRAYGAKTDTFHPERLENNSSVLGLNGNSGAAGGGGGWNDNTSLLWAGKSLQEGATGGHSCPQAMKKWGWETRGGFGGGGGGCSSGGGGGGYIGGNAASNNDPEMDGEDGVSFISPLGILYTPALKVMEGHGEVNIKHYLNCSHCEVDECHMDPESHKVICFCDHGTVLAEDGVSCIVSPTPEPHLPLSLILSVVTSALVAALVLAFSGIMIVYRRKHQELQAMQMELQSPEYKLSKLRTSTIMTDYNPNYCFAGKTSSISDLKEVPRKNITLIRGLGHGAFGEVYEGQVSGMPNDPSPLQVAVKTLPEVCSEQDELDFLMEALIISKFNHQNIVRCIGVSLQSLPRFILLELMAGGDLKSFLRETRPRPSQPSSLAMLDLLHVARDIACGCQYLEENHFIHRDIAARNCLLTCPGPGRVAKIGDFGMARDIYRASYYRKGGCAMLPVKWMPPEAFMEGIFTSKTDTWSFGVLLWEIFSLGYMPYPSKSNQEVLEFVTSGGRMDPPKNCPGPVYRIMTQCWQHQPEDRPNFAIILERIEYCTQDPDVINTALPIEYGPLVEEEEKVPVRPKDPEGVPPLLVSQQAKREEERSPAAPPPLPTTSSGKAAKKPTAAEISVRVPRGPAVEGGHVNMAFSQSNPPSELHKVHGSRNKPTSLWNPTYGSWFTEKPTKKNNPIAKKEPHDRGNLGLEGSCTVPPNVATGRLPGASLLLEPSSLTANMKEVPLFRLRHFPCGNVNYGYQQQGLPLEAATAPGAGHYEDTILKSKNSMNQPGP
Experiment: Kinase selectivity, Mobility shift assay
Format: biochemical

{"molecule": "Nc1ccc(-c2ccc3ncc4c(=O)[nH]c(=O)n(-c5cccc(C(F)(F)F)c5)c4c3n2)cn1 [Compound 5]", "target under test": "ALK (Homo sapiens (Human), UniProt Q9UM73)", "IC50 / nM": 1170}

---

Test: In vivo pharmacokinetics assay in rat
Settings: male, SD, plasma, po, rats, P.O, 4 mg/kg

{"compound": "Nc1ccc(-c2ccc3ncc4c(=O)[nH]c(=O)n(-c5cccc(C(F)(F)F)c5)c4c3n2)cn1 [Compound 5]", "unit abbrev": "h", "Tmax": 6}
{"compound": "O=c1[nH]c(=O)n(-c2cccc(C(F)(F)F)c2)c2c1cnc1ccc(-c3cnc4[nH]ccc4c3)nc12 [Compound 30]", "unit abbrev": "h", "Tmax": 2}
